Sourced from IntAct's records for PubMed 22653727

B1: Circadian locomoter output cycles protein kaput (Mus musculus), O08785 (parent)
chain: MVFTVSCSKMSSIVDRDDSSIFDGLVEEDDKDKAKRVSRNKSEKKRRDQFNVLIKELGSMLPGNARKMDKSTVLQKSIDFLRKHKETTAQSDASEIRQDWKPTFLSNEEFTQLMLEALDGFFLAIMTDGSIIYVSESVTSLLEHLPSDLVDQSIFNFIPEGEHSEVYKILSTHLLESDSLTPEYLKSKNQLEFCCHMLRGTIDPKEPSTYEYVRFIGNFKSLTSVSTSTHNGFEGTIQRTHRPSYEDRVCFVATVRLATPQFIKEMCTVEEPNEEFTSRHSLEWKFLFLDHRAPPIIGYLPFEVLGTSGYDYYHVDDLENLAKCHEHLMQYGKGKSCYYRFLTKGQQWIWLQTHYYITYHQWNSRPEFIVCTHTVVSYAEVRAERRRELGIEESLPETAADKSQDSGSDNRINTVSLKEALERFDHSPTPSASSRSSRKSSHTAVSDPSSTPTKIPTDTSTPPRQHLPAHEKMTQRRSSFSSQSINSQSVGPSLTQPAMSQAANLPIPQGMSQFQFSAQLGAMQHLKDQLEQRTRMIEANIHRQQEELRKIQEQLQMVHGQGLQMFLQQSNPGLNFGSVQLSSGNSNIQQLTPVNMQGQVVPANQVQSGHISTGQHMIQQQTLQSTSTQQSQQSVMSGHSQQTSLPSQTPSTLTAPLYNTMVISQPAAGSMVQIPSSMPQNSTQSATVTTFTQDRQIRFSQGQQLVTKLVTAPVACGAVMVPSTMLMGQVVTAYPTFATQQQQAQTLSVTQQQQQQQQQPPQQQQQQQQSSQEQQLPSVQQPAQAQLGQPPQQFLQTSRLLHGNPSTQLILSAAFPLQQSTFPPSHHQQHQPQQQQQLPRHRTDSLTDPSKVQPQ

variants of: B1; conditions: with Bmal1, Q9WTL8-4
Sequence (Q9WTL8 other isoform, or with tags, fused parts or gaps): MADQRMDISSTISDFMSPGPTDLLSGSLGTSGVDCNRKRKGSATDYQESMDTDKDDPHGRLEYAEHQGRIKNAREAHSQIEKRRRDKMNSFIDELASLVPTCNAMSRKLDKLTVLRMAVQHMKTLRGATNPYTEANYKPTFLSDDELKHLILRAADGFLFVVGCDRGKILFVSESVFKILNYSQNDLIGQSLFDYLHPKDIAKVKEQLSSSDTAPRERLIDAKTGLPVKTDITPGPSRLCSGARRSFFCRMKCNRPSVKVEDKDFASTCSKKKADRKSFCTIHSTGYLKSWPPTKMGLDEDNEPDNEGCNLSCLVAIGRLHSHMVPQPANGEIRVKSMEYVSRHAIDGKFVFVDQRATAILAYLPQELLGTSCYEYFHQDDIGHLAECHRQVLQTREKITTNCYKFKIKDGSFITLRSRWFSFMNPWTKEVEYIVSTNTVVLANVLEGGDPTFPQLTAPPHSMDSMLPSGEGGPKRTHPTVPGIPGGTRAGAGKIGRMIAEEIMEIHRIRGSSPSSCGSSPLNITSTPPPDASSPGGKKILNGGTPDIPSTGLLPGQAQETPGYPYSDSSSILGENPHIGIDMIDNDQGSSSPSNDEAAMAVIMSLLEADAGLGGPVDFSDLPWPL
PROPERTY NAME: effect of a mutation on the interaction

V315R : with no effect
L57E : with no effect
F122D : with no effect
L113E : with no effect
